Entries and their measured IC50 follow.
target: Acetylcholinesterase (Electrophorus electricus); assay: Inhibition of electric eel acetylcholine esterase type V-S in presence of acetylcholine substrate by chemiluminescent assay
Sequence (O42275 whole entry): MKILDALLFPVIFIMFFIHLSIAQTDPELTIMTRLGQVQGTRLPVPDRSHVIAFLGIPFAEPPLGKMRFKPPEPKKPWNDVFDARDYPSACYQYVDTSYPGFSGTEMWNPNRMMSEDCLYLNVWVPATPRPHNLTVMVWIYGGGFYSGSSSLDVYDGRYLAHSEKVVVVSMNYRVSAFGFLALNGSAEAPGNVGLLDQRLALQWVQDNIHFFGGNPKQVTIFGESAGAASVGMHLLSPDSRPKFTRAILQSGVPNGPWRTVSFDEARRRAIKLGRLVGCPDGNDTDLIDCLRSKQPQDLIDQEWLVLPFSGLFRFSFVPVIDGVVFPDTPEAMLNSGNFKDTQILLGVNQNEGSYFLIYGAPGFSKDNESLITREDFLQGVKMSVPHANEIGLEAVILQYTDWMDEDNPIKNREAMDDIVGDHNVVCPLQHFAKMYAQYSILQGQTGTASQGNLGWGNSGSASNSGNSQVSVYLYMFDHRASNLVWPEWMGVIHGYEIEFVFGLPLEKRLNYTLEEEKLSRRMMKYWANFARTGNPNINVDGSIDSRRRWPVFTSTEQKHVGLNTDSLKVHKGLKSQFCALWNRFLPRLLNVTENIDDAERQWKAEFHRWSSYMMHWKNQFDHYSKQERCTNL
Number in µM, nothing else.

Here are 2 compounds together with their reported answers.
Incoming: State the recorded IC50 for this entry: "CC(=O)N1CCN(/N=C/c2c(C)nc3sccn23)C1=O"
Outgoing: 35

Incoming: Name the reported IC50 value associated with the compound "CC(=O)N1CCN(/N=C/c2c(Cl)nc3sccn23)C1=O"
Outgoing: 60

New cases:
Incoming: Which measured IC50 value corresponds to "O=C(c1ccccc1)N1CCN(/N=C/c2c(Cl)nc3sccn23)C1=O" ?
Outgoing: 4.2

# credit: ChEMBL document CHEMBL1149802
